TGI reference
Tested on: SF-539 CNS
METHOD: NCI tumour cell line growth inhibition, 48 h

{"columns": ["MOLECULE", "READOUT_TYPE", "ASSAY_RESULT"],
 "data": [
  ["CC(=O)c1c2c(cc3c1CC1(Cc4cc5c(cc4C1)CCC5)C3)CCC2", "TGI", "> 100 µM"],
  ["CCCCOC(=O)/C(CC(=O)C=C(C)C)=N\\NS(=O)(=O)c1ccc(C)cc1", "TGI", "> 100 µM"]
]}

Note: attention shifts to another entry.
Which TGI is reported with SF-539 CNS for this entry: CN(C)c1ccc(C2CC(=O)CC(c3ccc(N(C)C)cc3)C23C(=O)NC(=O)NC3=O)cc1 (stereo not drawn) ?
> 25 µM

* * *

Test system: CAKI-1 renal
METHOD: NCI tumour cell line growth inhibition, 48 h
READOUT_TYPE: TGI

{"columns": ["COMPOUND", "TGI"],
 "data": [
  ["N=C(c1ccccc1)N1CCCCC1", "> 100 µM"],
  ["Cc1ccc2c(ccc3c[n+]4ccccc4c(C)c32)c1", "65.5 µM"],
  ["NC(=S)N/N=C/c1cc(CN2CCOCC2)c(N)cn1", "> 100 µM"]
]}

Which TGI is reported with CAKI-1 renal for this entry: COc1ncnc2c(NC3OC(CO)C(O)C3O)ncnc12 (stereo unspecified) ?
6.3 µM

Which TGI is reported with CAKI-1 renal for this entry: `c1ccc(-c2nc(Nc3ccc(-c4nc5ccccc5[nH]4)cc3)nc(N3CCOCC3)n2)cc1` ?
2.54 µM

Which TGI is reported with CAKI-1 renal for this entry: Cc1cccc(C(C)(C)C)c1NC(=O)CC1C(=O)Nc2ccccc2S1=O (stereo unspecified) ?
> 100 µM

Which TGI is reported with CAKI-1 renal for this entry: CN1C(c2ccccc2)CC(=Nc2ccccc2)CC1c1ccccc1 (stereo unspecified) ?
42.3 µM

Which TGI is reported with CAKI-1 renal for this entry: COc1ccc(/C=C/C(=O)NCC(NC(=O)/C=C/c2ccc(OC)c(OC)c2)C(=O)O)cc1OC (stereo unspecified) ?
> 100 µM

Which TGI is reported with CAKI-1 renal for this entry: `COC(=O)c1c/c(=N\NC(=O)CC(=O)Nc2ccccc2Cl)c2ccccc2o1` ?
> 100 µM

Which TGI is reported with CAKI-1 renal for this entry: `COc1ccc(-c2ccc(/C=N/n3cn[nH]c3=S)o2)c([N+](=O)[O-])c1` ?
> 100 µM

Which TGI is reported with CAKI-1 renal for this entry: `O=C1/C(=C/c2cccc([N+](=O)[O-])c2)COc2ccccc21` ?
> 100 µM

Which TGI is reported with CAKI-1 renal for this entry: CCCCCC(=O)N1c2ccccc2NC2=C(C(=O)CC(c3ccc(OC)c(OC)c3)C2)C1c1ccc(C(F)(F)F)cc1 (stereo unspecified) ?
> 100 µM

Which TGI is reported with CAKI-1 renal for this entry: `O=C(O)C(/C=C/c1ccco1)=N\Nc1nc(-c2ccc(Cl)cc2)cs1` ?
> 50 µM

* * *

Test system: U251 CNS
METHOD: NCI tumour cell line growth inhibition, 48 h
READOUT_TYPE: TGI

Below, 3 molecules whose answers are already recorded.
{"columns": ["MOLECULE", "ASSAY_RESULT"],
 "data": [
  ["COC(=O)n1c(=O)nc2c3c(ncn21)Oc1c(c(-c2ccccc2)nn1-c1ccccc1)C3c1ccc(Cl)cc1 (configuration not stated)", "3.08 µM"],
  ["Nc1cc(N)c2nc(-c3ccccc3)c(Nc3ccc(F)cc3)nc2c1", "20 µM"],
  ["N#C/C(=C\\c1ccc(Cl)cc1)c1nc2ccccc2c(=O)[nH]1", "> 100 µM"]
]}

// returns reported TGI for input Cc1ccccc1C(C#N)/C(=N/NC(=O)c1cc2ccccc2cc1O)C(=O)Nc1cccc(Cl)c1 (configuration not stated)
> 100 µM

// returns reported TGI for input C=CCOc1cc2c(cc1C(C)c1ccc(OC)cc1)OCO2 (configuration not stated)
> 100 µM

// returns reported TGI for input `c1ccc(-c2nc(Nc3ccc(-c4nc5ccccc5[nH]4)cc3)nc(N3CCOCC3)n2)cc1`
1.76 µM

// returns reported TGI for input `C[C@]12CC[C@H]3[C@@H](CCC4=CC(=O)CC[C@@H]43)[C@@H]1CC[C@@H]2OC1(O)C(=O)c2ccccc2C1=O`
> 100 µM

// returns reported TGI for input `CCOC(=O)[C@H]1C[C@@H](C(=O)c2ccccc2)N2N=C(c3ccc(Br)cc3)C=C[C@H]12`
> 100 µM

// returns reported TGI for input Cc1ccc(S(=O)(=O)N(c2ccccc2F)C2CCCCC2O)cc1 (configuration not stated)
> 100 µM

// returns reported TGI for input OCCNc1nc(NCCO)nc(Nc2ccc(C3=NN(c4cc(Cl)cc(Cl)c4)C(c4ccc(Cl)cc4)C3)cc2)n1 (configuration not stated)
3.04 µM

// returns reported TGI for input `Cn1c(=O)nc2n(CCO)c(-c3ccccc3)c(-c3ccccc3)nc-2c1=O`
> 100 µM

// returns reported TGI for input `O=S(=O)(O)C(F)(F)C(F)(F)C(F)(F)C(F)(F)F`
> 100 µM

// returns reported TGI for input `Oc1ccccc1C=Nc1ccc(Oc2ccc(Cl)cc2)c(Cl)c1`
50.5 µM

// returns reported TGI for input `COc1ccc(Cl)cc1N1C(=O)C(Cl)=C(Nc2cccc(O)c2)C1=O`
48 µM

// returns reported TGI for input `C1CSCC2(COC2)CS1`
> 100 µM

// returns reported TGI for input CN(C)c1ccc(C2CC(=O)CC(c3ccc(N(C)C)cc3)C23C(=O)NC(=O)NC3=O)cc1 (configuration not stated)
> 25 µM

// returns reported TGI for input `N#Cc1c(-c2ccccc2)c(C#N)c(=O)n(NS(=O)(=O)c2ccccc2)c1O`
> 100 µM

// returns reported TGI for input `CCCOc1ccc(/C=C\c2cc(OC)c(OC)c(OC)c2)cc1`
> 100 µM

// returns reported TGI for input `C/C(=N\NC(N)=S)c1ccc2c(c1)OCO2`
> 100 µM

* * *

System: OVCAR-4 ovarian
METHOD: NCI tumour cell line growth inhibition, 48 h
READOUT_TYPE: TGI

Below, 4 compounds whose answers are already recorded.
{"columns": ["COMPOUND", "ASSAY_SYSTEM", "ASSAY_RESULT"],
 "data": [
  ["OCCN(CO)CN(CN(CO)CCO)c1nc(N(CN(CO)CCO)CN(CO)CCO)nc(N(CN(CO)CCO)CN(CO)CCO)n1", "OVCAR-4 ovarian", "4.8 ng/mL"],
  ["CCOC(=O)C1CCC/C1=N\\N=C(N)N (stereo not given) (tested in a mixture with another compound)", "OVCAR-4 ovarian", "> 100 µM"],
  ["Cc1nc2ccccc2nc1NS(=O)(=O)c1ccc(N)cc1", "OVCAR-4 ovarian", "> 100 µM"],
  ["COc1ccccc1NC(=O)CC(=O)n1nc(C)c(N=Nc2ccccc2F)c1C", "OVCAR-4 ovarian", "> 100 µM"]
]}

Which TGI is reported with OVCAR-4 ovarian for this entry: `Nc1ccc(N=Nc2ccc(/C=C/c3ccc(N=Nc4ccc(N)c5ccc(S(=O)(=O)O)cc45)cc3S(=O)(=O)O)c(S(=O)(=O)O)c2)c2cc(S(=O)(=O)O)ccc12` ?
> 100 µM

* * *

System: XF 498 CNS
METHOD: NCI tumour cell line growth inhibition, 48 h
TGI reference

{"columns": ["MOLECULE", "TGI"],
 "data": [
  ["COc1ccccc1NC(=O)CC(=O)n1nc(C)c(N=Nc2ccccc2F)c1C", "> 83.3 µM"],
  ["COc1ccc2c(c1)c(Cc1c(C)n(C)c3ccc(OC)cc13)c(C)n2C", "> 100 µM"],
  ["COc1ccc(C2(CN(C)C)COc3cc(OC)c(OC)cc3C2=O)cc1OC (stereo unspecified)", "> 100 µM"],
  ["O=C(O)Cc1cc(=O)oc2cc(O)c(Cl)cc12", "> 100 µM"],
  ["C/C(=N\\NC(N)=S)c1ccc(/C(C)=N/NC(N)=S)cc1", "> 100 µM"]
]}

Note: attention shifts to another entry.
// returns reported TGI for input `Nc1ccc(N=Nc2ccc(/C=C/c3ccc(N=Nc4ccc(N)c5ccc(S(=O)(=O)O)cc45)cc3S(=O)(=O)O)c(S(=O)(=O)O)c2)c2cc(S(=O)(=O)O)ccc12`
> 100 µM

* * *

Tested on: OVCAR-5 ovarian
METHOD: NCI tumour cell line growth inhibition, 48 h; in the data active means GI50 below about 0.43 µM; inactive means the rest
*1 amine or outer side, *2 acyl side, *3 side chain or, on linkers, in order; H or OH if unused. Where a SMILES comes first, the peptide text is derived from it. Bridges are numbered along the chain shown (N, C = ends). [ ]: non-standard residue; d: D form. ξ: configuration not given here. X4 = CCC(C)C(N[*:1])C(O)CC(=O)O[C@H](C(=O)C(C)C(=O)[*:2])C(C)C; NMeY = CN[C@@H](Cc1ccc(O)cc1)C(=O)O; X9 = O=C([C@@H]1CC(O)CN1[*:1])[*:2]; ξNMeL = CNC(CC(C)C)C(=O)O; ξT = CC(O)C(N)C(=O)O
The reply should be one of these categories: True for active, False for inactive

{"columns": ["MOLECULE", "ASSAY_SYSTEM", "LABEL"],
 "data": [
  ["CCC(C)C1NC(=O)C(NC(=O)C(CC(C)C)N(C)C(=O)[C@@H]2CC(O)CN2)C(C)OC(=O)[C@H](Cc2ccc(OC)cc2)N(C)C(=O)[C@@H]2CCCN2C(=O)[C@H](CC(C)C)NC(=O)C(C)C(=O)[C@H](C(C)C)OC(=O)CC1O (some centres undefined) (H-[X9][ξNMeL][ξT][X4]LP[NMeY](Me); ester 3-C)", "OVCAR-5 ovarian", "True"],
  ["Clc1nc(Cl)c2ncn(C/C=C\\Cn3cnc4c(Cl)nc(Cl)nc43)c2n1", "OVCAR-5 ovarian", "False"],
  ["C=C1C(=O)O[C@H]2[C@H]1CC/C(COC(=O)NCCc1ccc(OC)cc1)=C\\CC[C@@]1(C)O[C@@H]21", "OVCAR-5 ovarian", "False"]
]}

Please turn your attention to the following entry.
Name the outcome recorded for `Nc1cc(N)c2nc(-c3ccccc3)c(Nc3ccc(F)cc3)nc2c1` in the assay.
False
